target-entity: TMV CP (TMV coat protein) (Tobacco mosaic virus (vulgare), UniProt P69687)
Construct: NT-647 dye labelled for MST
Sequence (P69687 2-159 limits assumed): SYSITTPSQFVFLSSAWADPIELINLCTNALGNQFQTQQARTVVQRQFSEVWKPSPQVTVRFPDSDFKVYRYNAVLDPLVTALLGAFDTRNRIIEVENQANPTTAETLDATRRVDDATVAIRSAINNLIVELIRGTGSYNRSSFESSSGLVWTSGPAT
experiment-summary: microscale thermophoresis (Monolith NT.[…], NT-647-labelled protein)
Type: binding
endpoint-label: pKd
// pKd: -log10(molar conc.)

Input O=c1c2ccccc2ncn1CO/N=C(\C=C\c1ccccn1)/C=C/c1ccccc1OCc1ccc(Cl)cc1Cl [8k] , output reported pKd.
6.01
